Property: pIC50; scope: individual molecules
- Assayed system: JAK2
- Protocol notes: In vitro JAK kinase enzymatic assay (JAK2)
pIC50: −log10 of the molar value.

INPUT: Please indicate pIC50 recorded for N#CCC(=O)Nc1cccc(-c2cnc3ccccc3n2)c1 [Example 8]
OUTPUT: 4.74

INPUT: Please indicate pIC50 recorded for O=C(Cn1cncn1)Nc1cccc(-c2cnc3ccccc3n2)c1 [Example 7]
OUTPUT: < 4.30

INPUT: Please indicate pIC50 recorded for O=C(CCCCl)Nc1cccc(-c2cnc3ccccc3n2)c1 [Example 5]
OUTPUT: < 4.30

INPUT: Please indicate pIC50 recorded for CCOC(=O)CC(=O)Nc1cccc(-c2cnc3ccccc3n2)c1 [Example 32]
OUTPUT: < 5.00

INPUT: Please indicate pIC50 recorded for CS(=O)(=O)OCC(=O)Nc1cccc(-c2cnc3ccccc3n2)c1 [Example 27]
OUTPUT: < 5.00

INPUT: Please indicate pIC50 recorded for CN1CCN(CC(=O)Nc2cccc(-c3cnc4ccccc4n3)c2)CC1 [Example 17]
OUTPUT: < 4.30

INPUT: Please indicate pIC50 recorded for O=C(CN1CCN(c2ccncc2)CC1)Nc1cccc(-c2cnc3ccccc3n2)c1 [Example 33]
OUTPUT: < 5.00

INPUT: Please indicate pIC50 recorded for O=C(CN1CCCCC1)Nc1cccc(-c2cnc3ccccc3n2)c1 [Example 9]
OUTPUT: < 4.70

INPUT: Please indicate pIC50 recorded for O=C(CN1CCOCC1)Nc1cccc(-c2cnc3ccccc3n2)c1 [Example 20]
OUTPUT: < 4.30

Reference source for all entries: patent US8592415B2
